- Test Details: yeast display, Sf9 membrane polyspecificity reagent, FACS + sequencing; frameworks hold sequencing errors
Reported Property: polyreactivity (PSR sort gate)

QVQLVESGGGLVQAGGSLRLSCAASGFTFWRYTMGWYRQAPGKERELVAAISGGTTTYYADSVKGRFTISRDNAKNTVYLQMNSLKPEDTAVYYCAAYSQRARTYDYWGHGTQVTVSS ... high polyreactivity
QVQLVESGGGLVQAGGSLRLSCAASGFTFWIYAMGWYRQAPGKERELVAAISASGGSTRYADSVKVRFTISRDNAKNTVYLQMNSLKPEDTAVYYCAAYHGLRRGFDYWGPGTQVTVSS ... high polyreactivity
QVQLVESGGGLVQAGGSLRLSCAASGITVDSNAMGWYRQAPGKDRELVAAISSTGSTDYADSVKGRFTISRDNAKNTVYLQMNSLKPEDTAVYYCAADSRYYYYGYKISGDYDSWGQGTQVTVSS ... low polyreactivity
QVQLEESGGGLVQAGGSLRLSCAASGRTFRLNVMGWYREAPGKQRELVAAISTRGGDTYYADSVKGRFTISLDNAKNTDYLQMNSLKPEDTALYYCAAEYTYVYDYWGQGTQVTLSS ... high polyreactivity
QVQLVESGGGLVQAGGSLRLSCAAAGSIFYYNAMGWYRQAPGKERELVASIRAHGGNTYYADSVKGRFTISRDNAKNTVYLQMNSLKPEDTAVYYCAKESRYAHLYYYWGLGTQVTVSS ... low polyreactivity
QVQLVESGGGLVQAGGSLRLSCAASGRILPLYAMGWYRQAPGKERELVARIDSGGSTNYADSVKGRFTISRDNAKNTVYLQMNSLKPEDTAVYYCAAVVTAQAYAYFTYGYDYWGQGTQVTVSS ... low polyreactivity
QVQLVESGGGLVQAGGSLRLSCAASGRTLPKYVLGWYRQSPGKERELVAAISSSGDSTYYADSVNGRFTISRDNAKNTVYLQMNILKPEDTAVYYCDKYDRNTYGYWGQGTQVTVST ... low polyreactivity
QVQLVESGGGLVQAGGSLRLSCAASGRTFAYYAMGWYRQAPGKERELVAAISTNGGTYYADSVKGRFTISRDNAKNTVYFQLNSLKPEDTAVYSCAAYTSYDVDYWGQGTQVTVSS ... low polyreactivity
QVQLVESGGGLVQAGGSLRLSCAASGGIFTGNAMGWYRQAPGKERELVAAINRRTGSTYYADSVKGRFTISRDNAKNTVYLQMNSLKPEDTAVYYCATRRYRSYTYDYWGQGTQVTVSS ... high polyreactivity
QVQLVESGGGLVQAGGRLRLSCAASGSTFGGNAMGWSRQAPGKERELVATISNSGGRTYYADSVKGRFTISRDNAKNTVYLQMNSLKPEDTAVYYCAADHPAFGPGYSFDYWGQGTQVTVSS ... low polyreactivity

Exercise: Would you kindly share the measured polyreactivity (PSR sort gate) for `QVQLVESGGGLVQAGGSLRLSCAASGRIFGAYAMGWYRQAPGKERELVATITKRGGSTFYADSVKGRFTISRDNAKNTVYVKMNSLKPEDTAVYYCAVVRYSPKRYWYGYWGQGTQVTVSS` ?
Solution: high polyreactivity

Exercise: Would you kindly share the measured polyreactivity (PSR sort gate) for `QVQLVESGGGLVQAGGSLRLRCAASGSIFWPYAMGWYRQAPGKERELVAGISSGGSTYYADSVKGRFTISRDNAKNTDYLQMNSLKPEDTAVYYCAARWQWLNGYYYWGQGSQVTVSS` ?
Solution: high polyreactivity

Exercise: Would you kindly share the measured polyreactivity (PSR sort gate) for `QVQLVESGGGLVQAGGSLRLSCAASGRIFSYYDMGWYRQAPGKERELVARISYSGDSTYYADSVKGRFTISRDNAKNTVYLQMNSLKPEDTAVYYCADEVDSGYSEYYWGQGTQVTVSS` ?
Solution: low polyreactivity

Exercise: Would you kindly share the measured polyreactivity (PSR sort gate) for `QVQLVESGGGLVQAGGSLRLSCAASGSTFFGNTMGRYRQAPGKERELVAAISRRGGSTYYADSVKGRFTISRDNAKNTVYLQMNSLKPEDTAVYYCAKYYHSGGYTPGKYDYWGQGTQVTVSS` ?
Solution: high polyreactivity

Exercise: Would you kindly share the measured polyreactivity (PSR sort gate) for `QVQLVESGGGLVQAGGSLRLSCAASGIIFGSNTMGWYRQAPGTERELVAAITSSDGSTHYADSVKGRFTISRDNAKNTVYLQMNRLKPEDTAVYYCAARKVTYGHSYGYDYWGQGTQVTVSS` ?
Solution: low polyreactivity

Exercise: Would you kindly share the measured polyreactivity (PSR sort gate) for `QVQLVESGGGIVQAGGSLRLSCAASGSIFKHYAMGWYRQAPGKERELVATIDYLGGRTYYADSVKGRFTISRDNAKNTVYLQMNSLKPEDTAVYYCAASRYSGKIRGEDYWGQRTQVTVSS` ?
Solution: low polyreactivity

Exercise: Would you kindly share the measured polyreactivity (PSR sort gate) for `QVQLVESGGGLVQAGGSLRLSCAASGFIFGKFAMGWYRPAPGKERELVAAITSDGRTYYADSVKGRFTISRDNAKNTVYLQMNSLKPEDTAVYYCAVDYYWYWYSGYDDYWGQGTQVTVSS` ?
Solution: high polyreactivity
